# Type: in vivo, human
# testSettings: human, plasma, oral, t ½, rosuvastatin 10 mg; allopurinol phase (300 mg once daily days 1–7); geometric mean (geometric CV)
observationType: half-life (h)
Form entry: value (h) — number only.

Query (compound): "CC(C)c1nc(N(C)S(C)(=O)=O)nc(-c2ccc(F)cc2)c1/C=C/[C@@H](O)C[C@@H](O)CC(=O)O" ; field requested: half-life
10.9

---

# testMethodNotes: Pharmacokinetics of allopurinol and febuxostat in healthy volunteers
# Assay type: in vivo, human
# testSettings: human, plasma, oral, 300 mg
observationType: AUC(0-t) (ng·h/mL)
Could you give me the number in ng·h/mL? Just the number is fine.

Form field: reported AUC(0-t) of Oc1ncnc2[nH]ncc12 [allopurinol]
5700

---

# testMethodNotes: Pharmacokinetics of allopurinol and febuxostat in healthy volunteers
# Format: in vivo, human
# testSettings: human, plasma, oral, 120 mg
observationType: AUC(0-t) (ng·h/mL)
Give just the numeric value; ng·h/mL need not be written.

Which AUC(0-t) value is on record for "Cc1nc(-c2ccc(OCC(C)C)c(C#N)c2)sc1C(=O)O" ?
12300

---

# testMethodNotes: Pharmacokinetics of allopurinol and febuxostat in healthy volunteers
# Assay type: in vivo, human
# testSettings: human, plasma, oral, 300 mg
observationType: Cmax
Just the number plus its unit, please.

Consider the compound Oc1ncnc2[nH]ncc12 [allopurinol] and give its measured Cmax.
2000 ng/mL

---

# testedOn: BCRP (Homo sapiens, UniProt Q9UNQ0)
# Sequence (Q9UNQ0 whole entry): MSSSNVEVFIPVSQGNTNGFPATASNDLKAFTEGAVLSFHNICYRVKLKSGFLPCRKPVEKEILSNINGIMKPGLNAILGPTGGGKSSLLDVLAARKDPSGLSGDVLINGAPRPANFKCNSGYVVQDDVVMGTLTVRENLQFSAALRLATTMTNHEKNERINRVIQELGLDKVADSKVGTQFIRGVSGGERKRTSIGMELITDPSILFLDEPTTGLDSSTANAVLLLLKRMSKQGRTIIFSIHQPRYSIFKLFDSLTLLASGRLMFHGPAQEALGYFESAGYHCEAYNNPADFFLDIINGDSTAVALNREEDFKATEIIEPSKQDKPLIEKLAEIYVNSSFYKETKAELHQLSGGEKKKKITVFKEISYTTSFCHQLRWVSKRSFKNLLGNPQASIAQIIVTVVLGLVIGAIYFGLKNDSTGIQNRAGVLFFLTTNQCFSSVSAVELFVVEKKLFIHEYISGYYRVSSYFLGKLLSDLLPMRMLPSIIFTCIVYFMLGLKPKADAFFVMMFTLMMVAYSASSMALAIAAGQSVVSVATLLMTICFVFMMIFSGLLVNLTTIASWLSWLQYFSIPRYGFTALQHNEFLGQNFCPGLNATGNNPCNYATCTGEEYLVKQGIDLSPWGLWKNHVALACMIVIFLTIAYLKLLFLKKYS
observationType: pIC50
When answering, recall that pIC50 equals minus log10 of the concentration in mol/L, and write that number alone.

Entry under review: "Cc1nc(-c2ccc(OCC(C)C)c(C#N)c2)sc1C(=O)O" . Reported pIC50?
6.46

---

# Assay type: in vivo, human
# testSettings: human, plasma, oral, t ½, rosuvastatin 10 mg; febuxostat phase (120 mg once daily days 4–7); geometric mean (geometric CV)
observationType: half-life

# half-life lookup, item "CC(C)c1nc(N(C)S(C)(=O)=O)nc(-c2ccc(F)cc2)c1/C=C/[C@@H](O)C[C@@H](O)CC(=O)O"
6.3 h

---

# testMethodNotes: Pharmacokinetics of allopurinol and febuxostat in healthy volunteers
# Assay type: in vivo, human
# testSettings: human, plasma, oral, 120 mg
observationType: half-life (h)
I only need the number, in h, no unit after it.

Entry "Cc1nc(-c2ccc(OCC(C)C)c(C#N)c2)sc1C(=O)O" : reported half-life = ?
6
